FYI, the data here is from the supplement of paper PMC9170038.

System: MS2 coat protein
measurementNotes: apparent KD of MS2 coat protein, switch ON state; designed switch direction (-1 OFF switch, 1 ON switch): -1; higher = weaker reporter binding
measurementContext: FMN input: 0 or 200 uM; Eterna round: R93 (includes R88 designs)
measuredMetric: apparent KD of MS2 coat protein (nM)
Write the number in nM without appending the unit.

Some entries whose results are on file:
# sequenceRecord, measuredMetric, units, value
data = [
    ("AAAGGACGAGGAUAUACAUGAGGAUCACCCAUGUAAAAAGCGUAAUAAAAGAACUUAUGUAGAAGGCGUCCAAA [Meechl Ex3 2 R2 v1]", "apparent KD of MS2 coat protein", "nM", 45),
    ("CGUUGGCGAGGAUAUACAUGAGGAUCACCCAUGUGAGAGAAAAAAGUGAGAAAGAAAAGUAGAAGGCGCUGACC [salish99-ex3-13]", "apparent KD of MS2 coat protein", "nM", 45.1),
    ("GAGAAGUUAGGAUAUACAGCGGGUAGCCGCGGUGGCCUUAGACAUGAGGAUCACCCAUGUAGAAGGAACGAAAA [Tebied]", "apparent KD of MS2 coat protein", "nM", 28.9),
]

Task item: // returns reported apparent KD of MS2 coat protein for input ACUAAUGAAGGAUAUACAAACAAAAAAAAAACAACAAACAAACAUGAGGAUCACCCAUGUAGAAGGUCAAAAAU [JR_Exc002_Sub1202]
Reply: 22.2

Task item: // returns reported apparent KD of MS2 coat protein for input AUCUUGUCAGGAUAUGACUACAUAAAAAAUAAAAAAUGUAGUCAGAAGGGACAUGAGGAUCACCCAUGUACCAA [Mat - Exclusion 4 - Eli mod - D96]
Reply: 20.4

Task item: // returns reported apparent KD of MS2 coat protein for input CUCUAGUCAGGAUAUGCAAGAAAAGAAGAGAAAGAAAAGAAGCAGAAGGGACAUGAGGAUCACCCAUGUAAGAA [EteRNA is fun!]
Reply: 51.3

Task item: // returns reported apparent KD of MS2 coat protein for input AAAAUGUCAGGAUAUGUAGCAUGAUACGAAAGUAUCAUGCUACAGAAGGGACAUGAGGAUCACCCAUGUGAUCA [Ex4: 939]
Reply: 59.7

Task item: // returns reported apparent KD of MS2 coat protein for input AACUGACAUGAGGAUCACCCAUGUCAGGAUAUGAUUUGACGAAAAAAAAAAAGUCAUAUCAGAAGGGACAUGGA [Design 81: Sub-opt UB]
Reply: 24.7

###

System: MS2 coat protein
measurementNotes: apparent KD of MS2 coat protein; higher = weaker reporter binding
measurementContext: Eterna round: R107; input ligand: arginine 13.2 mM
Condition met means recorded apparent KD of MS2 coat protein is 20 nM or above; Condition not met means it is below 20 nM.

# sequenceRecord, classLabel
measured = [
    ("AUUAUCGUAGGUUAAAGUUUAGAAACUGAAGGAGCGUGGUAUUACACAGGUAGGUCGCAGAUUUUACAUGAGGAUCACCCAUGUU [JR_ExcArginiA_Sub010]", "Condition met"),
    ("ACGAACGAUAGUGAUACCAGACGAACAUGAGGAUCACCCAUGUUAUACACAUGGUUUAUUGUCCCUUGGCAGCACUUUAAGUUCG [JR_ExcTheophyB_Sub006]", "Condition met"),
    ("GAGGGUGGGUCUCUAAUCCGUUUGACGGAUACCAGCGAGAGAUAUCGCCCUUGGCAGCCGACGACAUGAGGAUCACCCAUGUAAA [#06 Exclusion-TheophyllineA]", "Condition not met"),
    ("CUACAUUUGUAGAAACCGGUCAACAAUAAUCGAGGACCGGUACGGCCGCCACUCGAUGUGAAAUACACAUGAGGAUCACCCAUGU [Tryptophan A 13]", "Condition not met"),
]

Task item: API: above_or_equal(metric=apparent KD of MS2 coat protein, cutoff=20 nM) for item GCCAUCGGCGGAAGCCGAUGGGAUACAGAAGGAGCGCGGAUUAACGCAGGUAGGUCGCUGGACAUGAGGAUCACCCAUGUAAUAG [SSAA #9]
Reply: Condition not met

Task item: API: above_or_equal(metric=apparent KD of MS2 coat protein, cutoff=20 nM) for item GAUAUGGAAACAUGUCAGAUCCUUACCGGUCGAGGACCGGUACGGCCGCCACUCGAAAACGAGGAACAUGAGGAUCACCCAUGUA [Ex Tryptophan A 20]
Reply: Condition met

Task item: API: above_or_equal(metric=apparent KD of MS2 coat protein, cutoff=20 nM) for item AAAUUAUCGGCGGCCGCCACUAGAGUUAGGCUUAUGUACUGGGUAACAUGAGGAUCACCCAUGUAUAGGACCGGGCCAUAAUAAA [Same State - Tryptophan B (Freestyle 4)]
Reply: Condition met

Task item: API: above_or_equal(metric=apparent KD of MS2 coat protein, cutoff=20 nM) for item GAUAUGGAAACAUGUCAGAUCCUUACCGGUCGAGGACCGGUACGGCCGCCACUCGAAAACGAUGUACAUGAGGAUCACCCAUGUA [Ex Tryptophan A 19]
Reply: Condition not met

Task item: API: above_or_equal(metric=apparent KD of MS2 coat protein, cutoff=20 nM) for item GCUAUGGCUGGAAGGAGCGUGAAUUUCAGCGAACAUGAGGAUCACCCAUGUAAGGAUAUGGCACAGGUAGGUCGCUAGCCAUAGC [#19 Same State - Arginine B]
Reply: Condition not met

Task item: API: above_or_equal(metric=apparent KD of MS2 coat protein, cutoff=20 nM) for item AAGGGUGAGUCUCUAAUCCGUUUGACGGAUACCAGCGAGAGAUAUCGCCCUUGGCAGCCGACGACAUGAGGAUCACCCAUGUAAA [Exclusion - Theophylline A]
Reply: Condition not met

Task item: API: above_or_equal(metric=apparent KD of MS2 coat protein, cutoff=20 nM) for item AUGCAUAGCGGAAGGAGCGCAAUAGAAUGACAUGAGGAUCACCCAUGUGUGUGAUGUGGGUUGCAGGUAGGUCGCCGAGUGGCAU [#11 Exclusion - Arginine B]
Reply: Condition met

Task item: API: above_or_equal(metric=apparent KD of MS2 coat protein, cutoff=20 nM) for item GUUGGUUUGGGAAGGAGCGGGUAUGUUGUCUACUUGAUCCUAACAUGAGGAUCACCCAUGUCCCAGGUAGGUCGCCCAAGCUUUG [12.aE]
Reply: Condition met
